Tested on: UGT enzymes of human liver microsomes
test name: Inhibition of raloxifene glucuronidation (G1, G2) in human liver microsomes
Type: biochemical
condition details: raloxifene 50 μM; inhibitor 50 μM
experimental readout: % of control metabolism, raloxifene G2

input: Need % of control metabolism, raloxifene G2, item O=C(O)c1cc(-c2ccc(F)cc2F)ccc1O [Diflunisal, reference compound]
output: 45 (2) %

input: Again, but for O=C(O[C@@H]1Cc2c(O)cc(O)cc2O[C@@H]1c1ccc(O)c(O)c1)c1cc(O)c(O)c(O)c1 [Epicatechin gallate]
output: 43 (4) %

input: And O=C(O[C@@H]1Cc2c(O)cc(O)cc2O[C@@H]1c1cc(O)c(O)c(O)c1)c1cc(O)c(O)c(O)c1 [Epigallocatechin gallate] ?
output: 50 (3) %

input: Follow-up item: O=C(O)Cc1ccccc1Nc1c(Cl)cccc1Cl [Diclofenac, reference compound]
output: 67 (1) %

input: Param item: O=C(OC[C@H]1O[C@@H](OC(=O)c2cc(O)c(O)c(OC(=O)c3cc(O)c(O)c(O)c3)c2)[C@H](OC(=O)c2cc(O)c(O)c(OC(=O)c3cc(O)c(O)c(O)c3)c2)[C@@H](OC(=O)c2cc(O)c(O)c(OC(=O)c3cc(O)c(O)c(O)c3)c2)[C@@H]1OC(=O)c1cc(O)c(O)c(OC(=O)c2cc(O)c(O)c(O)c2)c1)c1cc(O)c(O)c(OC(=O)c2cc(O)c(O)c(O)c2)c1 [Tannic acid]
output: 0 (0), 0 (0) %

input: What would you report for C#C[C@]1(O)CC[C@H]2[C@@H]3CCc4cc(O)ccc4[C@H]3CC[C@@]21C [17-α-Ethinylestradiol, 17-α-ethinylestradiol, reference compound] ?
output: 60 (2) %

input: Same question, CCCCCCCCOC(=O)c1cc(O)c(O)c(O)c1 [Octyl gallate] this time
output: 46 (3) %

* * *

system under test: UGT1A3 (Homo sapiens, UniProt P35503)
Sequence (P35503 29-534): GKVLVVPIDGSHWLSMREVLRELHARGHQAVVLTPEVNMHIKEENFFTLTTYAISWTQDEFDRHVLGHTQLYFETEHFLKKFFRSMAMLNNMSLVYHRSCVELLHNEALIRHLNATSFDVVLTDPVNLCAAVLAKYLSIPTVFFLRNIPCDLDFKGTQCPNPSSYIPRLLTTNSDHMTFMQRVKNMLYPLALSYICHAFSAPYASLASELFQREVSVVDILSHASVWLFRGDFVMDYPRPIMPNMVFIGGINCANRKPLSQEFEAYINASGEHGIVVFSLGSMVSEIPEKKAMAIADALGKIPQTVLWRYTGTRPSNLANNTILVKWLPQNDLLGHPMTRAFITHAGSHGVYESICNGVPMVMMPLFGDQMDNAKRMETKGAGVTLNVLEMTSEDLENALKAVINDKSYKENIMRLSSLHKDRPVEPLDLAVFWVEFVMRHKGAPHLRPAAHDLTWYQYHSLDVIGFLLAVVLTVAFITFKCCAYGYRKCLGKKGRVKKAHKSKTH
test name: Inhibition of raloxifene glucuronidation by recombinant UGT1A3 Supersomes
condition details: human, Supersomes with recombinant human UGT1A3, pH 7.5, probe raloxifene 50 μM, formation of glucuronide G1, % of control metabolism, raloxifene G1, UGT1A3; inhibitor 25 μM
experimental readout: activity at 15 min, 25 µM (%)
Return type: number; implicit unit %.

input: Give recorded activity at 15 min, 25 µM with UGT1A3 (Homo sapiens, UniProt P35503) for the following molecule: `O=c1c(O)c(-c2ccc(O)c(O)c2)oc2cc(O)cc(O)c12`
output: 53

input: Next molecule up: O=C(O[C@@H]1Cc2c(O)cc(O)cc2O[C@H]1c1cc(O)c(O)c(O)c1)c1cc(O)c(O)c(O)c1 [Gallocatechin gallate]
output: 65

input: Next entry: CCCCCCCCOC(=O)c1cc(O)c(O)c(O)c1 [Octyl gallate]
output: 28

input: Do the same for CC/C(=C(/CC)c1ccc(O)cc1)c1ccc(O)cc1 [Diethylstilbestrol, reference compound] please
output: 32

input: Now consider `O=C(OC[C@H]1O[C@@H](OC(=O)c2cc(O)c(O)c(OC(=O)c3cc(O)c(O)c(O)c3)c2)[C@H](OC(=O)c2cc(O)c(O)c(OC(=O)c3cc(O)c(O)c(O)c3)c2)[C@@H](OC(=O)c2cc(O)c(O)c(OC(=O)c3cc(O)c(O)c(O)c3)c2)[C@@H]1OC(=O)c1cc(O)c(O)c(OC(=O)c2cc(O)c(O)c(O)c2)c1)c1cc(O)c(O)c(OC(=O)c2cc(O)c(O)c(O)c2)c1` .
output: 25

* * *

Please respond with reported residual metabolism (% of control), 2ME2 MG1 for every item in the list.
Test system: UGT enzymes of human liver microsomes
Construct: other: liver 062101
test name: Inhibition of 2ME2 glucuronidation (MG1, MG2) in human liver microsomes
Format: biochemical
condition details: liver 062101; 2ME2 50 μM; inhibitor 25 μM

input: residual metabolism (% of control), 2ME2 MG1 for `O=C(OC[C@H]1O[C@@H](OC(=O)c2cc(O)c(O)c(OC(=O)c3cc(O)c(O)c(O)c3)c2)[C@H](OC(=O)c2cc(O)c(O)c(OC(=O)c3cc(O)c(O)c(O)c3)c2)[C@@H](OC(=O)c2cc(O)c(O)c(OC(=O)c3cc(O)c(O)c(O)c3)c2)[C@@H]1OC(=O)c1cc(O)c(O)c(OC(=O)c2cc(O)c(O)c(O)c2)c1)c1cc(O)c(O)c(OC(=O)c2cc(O)c(O)c(O)c2)c1` ?
output: 13 (1) %

input: // same read-out, input: O=C(c1ccc(OCCN2CCCCC2)cc1)c1c(-c2ccc(O)cc2)sc2cc(O)ccc12 [Raloxifene, raloxifene, reference compound]
output: 42 (0) %

input: Item: C#C[C@]1(O)CC[C@H]2[C@@H]3CCc4cc(O)ccc4[C@H]3CC[C@@]21C [17-α-Ethinylestradiol, 17-α-ethinylestradiol, reference compound]
output: 74 (1) %

input: # repeat for O=C(O[C@@H]1Cc2c(O)cc(O)cc2O[C@@H]1c1cc(O)c(O)c(O)c1)c1cc(O)c(O)c(O)c1 [Epigallocatechin gallate]
output: 61 (1) %

input: // query: `O=C1C[C@@H](c2ccc(O)cc2)Oc2cc(O)cc(O)c21`
output: 76 (1) %

input: Similarly, O=C(O[C@@H]1Cc2c(O)cc(O)cc2O[C@@H]1c1ccc(O)c(O)c1)c1cc(O)c(O)c(O)c1 [Epicatechin gallate] ?
output: 47 (1) %

input: Also, O=C(O[C@@H]1Cc2c(O)cc(O)cc2O[C@H]1c1cc(O)c(O)c(O)c1)c1cc(O)c(O)c(O)c1 [Gallocatechin gallate] please.
output: 33 (1) %

input: Request: `O=c1c(O)c(-c2ccc(O)c(O)c2)oc2cc(O)cc(O)c12`
output: 63 (3) %

* * *

system under test: UGT enzymes of human liver microsomes
test name: Kinetic and Ki studies of inhibitors of 7-HFC glucuronidation in human liver microsomes
condition details: highest inhibitor concentration only (tannic acid 0, 25; octyl gallate and gallocatechin gallate 0, 200 μM); read-out: Ki (apparent), 7-HFC glucuronidation
Would you kindly list Ki for each of these compounds?
Answer with a number only, understood to be in µM.

input: Which value of Ki has been reported for O=C(O[C@@H]1Cc2c(O)cc(O)cc2O[C@H]1c1cc(O)c(O)c(O)c1)c1cc(O)c(O)c(O)c1 [Gallocatechin gallate] in the records?
output: 40

input: Also `O=C(OC[C@H]1O[C@@H](OC(=O)c2cc(O)c(O)c(OC(=O)c3cc(O)c(O)c(O)c3)c2)[C@H](OC(=O)c2cc(O)c(O)c(OC(=O)c3cc(O)c(O)c(O)c3)c2)[C@@H](OC(=O)c2cc(O)c(O)c(OC(=O)c3cc(O)c(O)c(O)c3)c2)[C@@H]1OC(=O)c1cc(O)c(O)c(OC(=O)c2cc(O)c(O)c(O)c2)c1)c1cc(O)c(O)c(OC(=O)c2cc(O)c(O)c(O)c2)c1` , if possible.
output: 5.4

input: Entry to check: CCCCCCCCOC(=O)c1cc(O)c(O)c(O)c1 [Octyl gallate]
output: 16

* * *

Test system: UGT enzymes of human liver microsomes
test name: Inhibition of raloxifene glucuronidation (G1, G2) in human liver microsomes
Type: biochemical
condition details: G2; inhibitor 50 μM; raloxifene 50 μM, human liver microsomes 250 μg/ml, 15 min
experimental readout: % of control metabolism (SD, n = 3), raloxifene glucuronide G2

input: Dear colleague, I am looking for the recorded % of control metabolism (SD, n = 3), raloxifene glucuronide G2 of the following compound: `O=C1C[C@@H](c2ccc(O)cc2)Oc2cc(O)cc(O)c21`
output: 71 (9) %

input: Another compound to look at: C#C[C@]1(O)CC[C@H]2[C@@H]3CCc4cc(O)ccc4[C@H]3CC[C@@]21C [17-α-Ethinylestradiol, 17-α-ethinylestradiol, reference compound]
output: 60 (2) %

input: Next record, please: CCCOC(=O)c1cc(O)c(O)c(O)c1 [Propyl gallate]
output: 48 (6) %

* * *

System: UGT enzymes of human liver microsomes
test name: Inhibition of raloxifene glucuronidation (G1, G2) in human liver microsomes
Assay type: biochemical
condition details: G1; inhibitor 500 μM; raloxifene 50 μM, human liver microsomes 250 μg/ml, 15 min
Description: Compounds were eluted using a binary solvent gradient system. […] Solvent B was methanol. […] Detection was at 280 nm.
experimental readout: % of control metabolism (SD, n = 3), raloxifene glucuronide G1

input: % of control metabolism (SD, n = 3), raloxifene glucuronide G1 of `COc1cc(CNC(=O)CCCC/C=C/C(C)C)ccc1O` on UGT enzymes of human liver microsomes?
output: 26 (1) %

input: Same again, this time with CCCCCCCCC(=O)NCc1ccc(O)c(OC)c1 [N-Vanillylnonanamide]
output: 14 (1) %

input: Next compound up: CCCOC(=O)c1cc(O)c(O)c(O)c1 [Propyl gallate]
output: 21 (1) %

input: Now this one: CN(C)CCC=C1c2ccccc2CCc2ccccc21 [Amitriptyline, reference compound]
output: 138 (6) %

input: Please answer likewise for O=C(O[C@@H]1Cc2c(O)cc(O)cc2O[C@@H]1c1cc(O)c(O)c(O)c1)c1cc(O)c(O)c(O)c1 [Epigallocatechin gallate]
output: 0 (0) %

input: Subsequent entry: O=C(O[C@@H]1Cc2c(O)cc(O)cc2O[C@@H]1c1ccc(O)c(O)c1)c1cc(O)c(O)c(O)c1 [Epicatechin gallate]
output: 0 (0) %

input: Another: CCCCCCCCCCCCCCCC(=O)OC[C@H](O)[C@H]1OC(=O)C(O)=C1O [Ascorbyl palmitate]
output: 26 (1) %

input: Then what about the compound O=C(O)c1cc(-c2ccc(F)cc2F)ccc1O [Diflunisal, reference compound] ?
output: 6 (1) %
